# Species on record: Rattus norvegicus
# protocol_details: Saluretic activity in rats after 0-24 hours, as potassium ion concentration in urine
# Format: functional
Threshold rule: Saluretic activity greater than or equal to 5 m equiv kg-1 is 1 (yes); below that, 0 (no).

{"smiles_str": "Cn1ncc2cc(S(N)(=O)=O)c(Sc3ccccc3)cc2c1=O", "assigned_label": "0 (no)"}
{"smiles_str": "NS(=O)(=O)c1cc2c(cc1Cl)CNN(Cc1ccccc1)C2=O", "assigned_label": "1 (yes)"}
{"smiles_str": "NS(=O)(=O)c1cc2cnnc(O)c2cc1Cl", "assigned_label": "1 (yes)"}
{"smiles_str": "CN1NCc2cc(Cl)c(S(N)(=O)=O)cc2C1=O", "assigned_label": "1 (yes)"}
{"smiles_str": "NS(=O)(=O)c1cc2cnn(-c3cccc(C(F)(F)F)c3)c(=O)c2cc1Cl", "assigned_label": "1 (yes)"}
{"smiles_str": "NS(=O)(=O)c1cc2c(cc1Cl)C(=O)N(Cc1ccccc1)NC2", "assigned_label": "1 (yes)"}

---

Recorded Saluretic activity for the following compounds
# Species on record: Rattus norvegicus
# protocol_details: Saluretic activity in rats after 0-24 hours, as potassium ion concentration in urine
# Format: functional

{"compound": "CN1NCc2cc(S(N)(=O)=O)c(Cl)cc2C1=O", "Saluretic activity / m equiv kg-1": 4.35}
{"compound": "Cn1ncc2cc(S(N)(=O)=O)c(Cl)cc2c1=O", "Saluretic activity / m equiv kg-1": 5.16}
{"compound": "NS(=O)(=O)c1cc2c(cc1Cl)CNN(c1cccc(C(F)(F)F)c1)C2=O", "Saluretic activity / m equiv kg-1": 5.41}
{"compound": "NS(=O)(=O)c1cc2c(=O)n(-c3cccc(C(F)(F)F)c3)ncc2cc1Cl", "Saluretic activity / m equiv kg-1": 4.31}
{"compound": "NS(=O)(=O)c1cc2c(cc1Cl)N=CNS2(=O)=O [CHLOROTHIAZIDE]", "Saluretic activity / m equiv kg-1": 7.89}
{"compound": "NS(=O)(=O)c1cc2c(cc1Cl)CNN(Cc1ccco1)C2=O", "Saluretic activity / m equiv kg-1": 5.75}
{"compound": "NS(=O)(=O)c1cc2cnn(Cc3ccccc3)c(=O)c2cc1Cl", "Saluretic activity / m equiv kg-1": 5.74}
{"compound": "NS(=O)(=O)c1cc2c(=O)n(Cc3ccco3)ncc2cc1Cl", "Saluretic activity / m equiv kg-1": 3.74}
{"compound": "NS(=O)(=O)c1cc2c(cc1Cl)C(=O)N(c1cccc(C(F)(F)F)c1)NC2", "Saluretic activity / m equiv kg-1": 4.53}
{"compound": "NS(=O)(=O)c1cc2c(O)nncc2cc1Cl", "Saluretic activity / m equiv kg-1": 5.06}
{"compound": "NS(=O)(=O)c1cc2c(cc1Cl)CNNC2=O", "Saluretic activity / m equiv kg-1": 5.63}

---

# Species on record: Rattus norvegicus
# protocol_details: Saluretic activity in rats after 5-24 hours, as sodium ion concentration in urine
# Type: functional

{"compound": "CN1NCc2cc(Cl)c(S(N)(=O)=O)cc2C1=O", "Saluretic activity, m equiv kg-1": 5.98}
{"compound": "NS(=O)(=O)c1cc2c(=O)n(Cc3ccco3)ncc2cc1Cl", "Saluretic activity, m equiv kg-1": 2.4}
{"compound": "NS(=O)(=O)c1cc2c(=O)n(Cc3ccccc3)ncc2cc1Cl", "Saluretic activity, m equiv kg-1": 5.92}
{"compound": "NS(=O)(=O)c1cc2c(cc1Cl)C(=O)NNC2", "Saluretic activity, m equiv kg-1": 5.84}
{"compound": "NS(=O)(=O)c1cc(C(=O)O)c(NCc2ccco2)cc1Cl [FUROSEMIDE]", "Saluretic activity, m equiv kg-1": 3.02}
{"compound": "NS(=O)(=O)c1cc2c(cc1Cl)CNN(c1cccc(C(F)(F)F)c1)C2=O", "Saluretic activity, m equiv kg-1": 4.9}
{"compound": "NS(=O)(=O)c1cc2cnnc(O)c2cc1Cl", "Saluretic activity, m equiv kg-1": 4.3}
{"compound": "Cn1ncc2cc(Cl)c(S(N)(=O)=O)cc2c1=O", "Saluretic activity, m equiv kg-1": 2.4}
{"compound": "CN1NCc2cc(S(N)(=O)=O)c(Cl)cc2C1=O", "Saluretic activity, m equiv kg-1": 4.94}
{"compound": "NS(=O)(=O)c1cc2c(O)nncc2cc1Cl", "Saluretic activity, m equiv kg-1": 4.21}
{"compound": "Cn1ncc2cc(S(N)(=O)=O)c(Sc3ccccc3)cc2c1=O", "Saluretic activity, m equiv kg-1": 6.55}
{"compound": "Cn1ncc2cc(S(N)(=O)=O)c(Cl)cc2c1=O", "Saluretic activity, m equiv kg-1": 5.26}
